FYI, the data here is from patent US5068334A.

# Lookup of reported LD50 at 336 h keyed by entry
Experiment: acute toxicity in mice
Conditions: in vivo, po; mouse, both sexes, oesophageal tube, death within 14 days; read-out: LD^50 Mouse
Reply with just the number (in mg/kg).

- compound: "CN1C(=O)CCC2=C1CCCC2=O"
  LD50 at 336 h [mg/kg]: 985
- compound: "Cc1cc2c([nH]c1=O)CCCC2=O"
  LD50 at 336 h [mg/kg]: 825

Q: Sample Cn1c2c(ccc1=O)C(=O)CCC2 — what was its LD50 at 336 h?
Result: 767

Q: Subsequent entry: CC1CC2=C(CCCC2=O)NC1=O (centres unmarked)
Result: 1220

Q: Try Cc1cc2c(n(C)c1=O)CCCC2=O next.
Result: 296
